meta.source: ChEMBL document CHEMBL1201862

Listed below: GI50 values for each entry.
- Test system: COLO 205
- Experiment Description: NCI tumour cell line growth inhibition, 48 h
Activity calls are given as the source filed them. No stated cut-off is given here; in the data, active = GI50 up to about 1.1 µM and inactive = higher.

Compound	GI50
COc1ccc2c(c1)[n+]([O-])c(-c1ccc([N+](=O)[O-])cc1)c(N)[n+]2[O-]	47.4 µM (inactive)
O=c1[nH]nc(-c2ccccc2)n1-c1ccncc1	> 100 µM (inactive)
CC(=O)NNc1nc(C)c(C(=O)/C=C/c2ccc(Cl)cc2)s1	> 100 µM (inactive)
COc1nc2ccc(CNc3ccc(C(=O)NC(CCC(=O)O)C(=O)O)cc3)cc2nc1OC (stereo not given)	> 100 µM (inactive)
O=S(=O)(O)c1ccc2c(/N=N/c3ccc(/N=N/c4ccccc4)cc3)c(O)c(S(=O)(=O)O)cc2c1	> 100 µM (inactive)
C=C(C)C1CC(=O)C(C)=C(O)C1 (stereo not given)	> 100 µM (inactive)
CC(=O)Nc1ccc(OCC(O)CO)cc1 (stereo not given)	> 100 µM (inactive)
Cc1cc(O)nc(NNC(C#N)c2ccc([N+](=O)[O-])cc2)n1 (stereo not given)	> 100 µM (inactive)
CC1CCP(=O)(c2ccccc2)CC1 (stereo not given)	> 100 µM (inactive)
CC(=O)OCC12C(OC(C)=O)C(=O)C3C(OC(C)=O)C14OC3(C)COC(=O)c1cccnc1C(C)C(C)C(=O)OC(C(OC(C)=O)C2OC(C)=O)C4(C)O (stereo not given)	> 100 µM (inactive)
CCc1ccccc1NC(=O)C1=C(C)NC(C)=C(C(=O)Nc2ccccc2CC)C1c1ccc2c(c1)OCO2	29 µM (inactive)
COC(=O)C(Cc1c[nH]c2ccccc12)NC(=O)C(Cc1c[nH]c2ccccc12)NC(=O)OCc1ccccc1 (stereo not given)	16.8 µM (inactive)
CN(CCNC(=S)c1cn(C)c2c1ccc1ccccc12)CCNC(=S)c1cn(C)c2c1ccc1ccccc12	> 100 µM (inactive)
COC(=O)C(=O)CC(=O)CCn1ncc(Cl)c(Cl)c1=O	14.3 µM (inactive)
C=CCN1CCC23c4c5ccc(O)c4OC2C(=NN=C2CCC4(O)C6Cc7ccc(O)c8c7C4(CCN6CC=C)C2O8)CCC3(O)C1C5 (stereo not given)	19.9 µM (inactive)
O=C1OC(C2Cc3ccccc3C2=O)c2ccccc21 (stereo not given)	> 100 µM (inactive)
N#CC(C#N)=c1c2nsnc2c(=C(C#N)C#N)c2nsnc12	2.52 µM (inactive)
COc1ccc2c(c1)C(=O)[C@@](Nc1ccc(C=O)cc1)(OC)[C@@](OC)(c1ccc([N+](=O)[O-])cc1)O2	> 10 µM (inactive)
Cc1cccc(C)c1N1C(=O)C2c3[nH]c4ccccc4c3C3CCC(C(C)(C)C)CC3C2C1=O (stereo not given)	10.9 µM (inactive)
O=C(Nc1c(O)[nH]c(=S)[nH]c1=O)c1ccccc1	> 100 µM (inactive)

====

- Tested on: HCT-15

Compound	Comparative Sign	GI50 (µM)
COc1ccc2c(c1)C(=O)[C@@](Nc1ccc(C=O)cc1)(OC)[C@@](OC)(c1ccc([N+](=O)[O-])cc1)O2	>	10
c1ccc2cc3n[se]nc3cc2c1	>	100
O=C(Cc1ccc(OCc2cccc(Cl)c2)cc1)NO	=	14.1
Nc1c(Cl)ncnc1NCCCCCCCCCCCCNc1ncnc(Cl)c1N	=	1.88
COC1=CC(=O)C2C(C1=O)[C@@H]1c3ccccc3OC[C@H]21 (some centres undefined)	>	10
CCCCCCCCCCCCCCC[C@@H](O)C[N+](C)(C)CCO	=	2.6
O=C1NC(=O)C2C1N(Cc1ccccc1)C(=O)N2Cc1ccccc1 (centres undefined)	>	100
NC(Cc1c[nH]c2cc([N+](=O)[O-])ccc12)C(=O)O (centres undefined)	>	100
O=C1OC(C2OC(=O)c3cc(O)c(O)c(O)c3-c3c(O)c(O)c4oc(=O)c5c(c(O)c(O)c6oc(=O)c3c4c65)-c3c(cc(O)c(O)c3O)C(=O)OCC2O)C2OC(=O)c3c(c(O)c(O)c(O)c3[C@H]2O)-c2c1cc(O)c(O)c2O (some centres undefined)	=	13.2

====

Listed below: GI50 values for each entry.
- Test system: MOLT-4
- Experiment Description: NCI tumour cell line growth inhibition, 48 h
The source made the active and inactive calls. Cut-off read from the data, not from the text of the source: active = GI50 up to about 1.1 µM and inactive = higher.
Endpoint: GI50

>>> df
                                    compound  endpoint           meas_value
 0                  Oc1cccnc1/C=N/OCc1ccccc1      GI50  > 100 µM (inactive)
 1  O=C(NC1CCC[C@H]1OC(=O)c1ccccc1)c1ccccc1 (stereo partly specified)      GI50   30.1 µM (inactive)
 2         CC1=Nn2c(nc3sc4c(c3c2=O)CCCC4)SC1      GI50   44.2 µM (inactive)
 3  CCc1nc2cc(/N=N/c3c(O)ccc4ccccc34)ccc2[nH]1      GI50   7.98 µM (inactive)
 4  NP(=O)(Oc1c2occc2cc2ccc(=O)oc12)N(CCCl)CCCl (stereo unspecified)      GI50   28.8 µM (inactive)
 5  COC1=CC(=O)C2C(C1=O)[C@@H]1c3ccccc3OC[C@H]21 (stereo partly specified)      GI50  > 100 µM (inactive)
 6  Cc1ccc(S(N)(C(=O)Nc2cccc3ccccc23)[N+](=O)[O-])cc1 (stereo unspecified)      GI50   29.5 µM (inactive)
 7  CCC(c1ccc(OC)cc1)C1NC(=S)NC1=O (stereo unspecified)      GI50   35.5 µM (inactive)
 8          Cc1ncc(C/N=C/c2ccc(Cl)cc2)c(N)n1      GI50  > 100 µM (inactive)
 9  CN(C)CCNC(=O)c1cccc2c(Nc3ccc(S(=O)(=O)N=C(N)N)cc3)c3ccccc3nc12      GI50   2.03 µM (inactive)
10  CC1(C)CCCCCCCCCC(C)(CCCO)C1=O (stereo unspecified)      GI50   14.1 µM (inactive)

====

- Tested on: BT-549
- Experiment Description: NCI tumour cell line growth inhibition, 48 h
Active and inactive are the calls of the source. Rule as the data show it: active = GI50 up to about 1.1 µM and inactive = higher. Peptide text beside a SMILES is read from it. * marks the point of attachment. Cbz = O=C(OCc1ccccc1)*; CH2Cl = ClC*
Outcome codes: active, inactive

                                    compound  assigned_label
 0     C=CCN1C(=O)/C(=C/c2ccco2)N=C1SC/C=C/C        inactive
 1  CC(C1CCCC1=O)C1CCCC1=O (stereo not given)        inactive
 2     COc1ccc2oc(=N)c(C(=O)NCc3ccccc3)cc2c1        inactive
 3  Cc1cc2nc3c(C#N)c(-c4ccccc4)cc(Nc4ccc(Cl)cc4)n3c2cc1C        inactive
 4  CCOc1nc2sc3c(c2c(=O)n1CCSSCCn1c(OCC)nc2sc4c(c2c1=O)CCCC4)CCCC3        inactive
 5          Cc1cnc(/C=N\NC(N)=S)c2cccc(N)c12          active
 6  COCc1nc2c(OC)c(-c3nc4ccc(N5CCN(C)CC5)nc4[nH]3)cc(OC)c2n1C        inactive
 7  CN(C)c1ccc(/C=N/c2ccc(-c3nc4ccccc4s3)cc2)cc1        inactive
 8  O=C1C(Cl)=C(N2C(=O)CCC2=O)C(=O)c2ccccc21        inactive
 9  N#Cc1ccc(NC(=O)C(CC(=O)OCc2ccccc2)NC(=O)OCc2ccccc2)cc1 (stereo not given)        inactive
10  Nc1nc(=O)c2c([nH]1)NCC(CCNc1ccc(C(=O)O)cc1)N2 (stereo not given)        inactive
11  C=CCOc1ccc(C2C(C(=O)OC)C(=O)CC(O)(c3ccccc3)C2C(=O)OC)cc1OC (stereo not given)        inactive
12  CCOC(=O)c1c(N2CCCC2)[nH]c(=O)c(C(c2ccco2)c2c(O)c(C(=O)OCC)c(N3CCCC3)[nH]c2=O)c1O        inactive
13                     c1ccc(SCCc2ccncc2)cc1        inactive
14  CCCCCCCCCCCCCCCCCCNC(=O)OCC(CNS(=O)(=O)CCC[n+]1cccc2ccccc21)COC (stereo not given)        inactive
15  Cc1ccc(-c2c(C#N)c(-c3ccc(N(C)C)cc3)c(C#N)c(=O)n2NS(=O)(=O)c2ccccc2)cc1        inactive
16  COC1=C(OC)C(=O)C(Cc2c(Cl)nc3n2CCS3)=C(C)C1=O        inactive
17                N#Cc1nc(/C=C/c2ccccc2)oc1N        inactive
18           Cc1nc2ccccc2[nH]/c1=N/Nc1ccccc1        inactive
19  OC(c1nc2ccccc2[nH]1)C(O)C(O)C(O)c1nc2ccccc2[nH]1 (stereo not given)        inactive
20  CC(C)CC(NC(=O)OCc1ccccc1)C(=O)NC(Cc1ccccc1)C(=O)CCl (stereo not drawn) (Cbz-Leu-Phe-CH2Cl; configuration not given here)        inactive
21  O=C1C(C(c2ccc([N+](=O)[O-])cc2)N2CCOCC2)=C(O)C(c2ccccc2)N1c1ccccc1 (stereo not given)        inactive
22  NP(=O)(Oc1c2occc2cc2ccc(=O)oc12)N(CCCl)CCCl (stereo not given)        inactive
23  O=C1c2ccccc2C(=O)c2c1ccc1nc3c(nc21)-c1c2ccccc2cc2cccc-3c12        inactive
24  Nc1cccc(OCc2nc(N)nc(N)c2-c2ccc(Cl)cc2)c1        inactive
25  CC/C(Cl)=N\OC(=O)Nc1ccc(F)c([N+](=O)[O-])c1        inactive
26                 CNn1c(-c2ccccc2)n[nH]c1=O        inactive
27  C=C(C)[C@@H]1CCC2=C[C@H](C/C(C)=C\C3=CC(C)=C(O3)[C@H]1O)OC2=O        inactive
28  OCC1OC(n2cnc3c2N=CNC[C@H]3O)C(Cl)C1O (stereo not given in full)        inactive
29  O=C1N/C(=N/N=C/c2c[nH]c3ccccc23)N/C1=C\c1c[nH]c2ccccc12        inactive
